# Target or test system: Polyporus pinsitus laccase (Trametes villosa, UniProt Q99044)
# Construct: made in house
# Method notes: Bleaching of methyl orange using rPpL and NOH-type enhancing agents (initial bleaching rate)
# Assay type: biochemical
# Test conditions: pH 5; rPpL solution diluted 1:200; 0.2 mM mediator; 30° C.; large negative numbers = best performance
Note to self: use label 1 only for Initial changes per minute in A464 nm of methyl orange using rPpL readings below -0.02 per minute; a reading exactly at -0.02 per minute still gets label 0.

Reference set (6 entries):
                                   molecule                     target_or_test_system  class_label
0  CS(=O)(=O)c1ccc2ccn(OC(=O)c3ccccc3)c2c1 [PFC-202]  Polyporus pinsitus laccase (Trametes villosa, UniProt Q99044)      label 1
1  [O-][n+]1ccc2ccccc2c1 [Iso-quinoline-N-oxide]  Polyporus pinsitus laccase (Trametes villosa, UniProt Q99044)      label 1
2  CC(=O)N(O)c1ccccc1 [N-hydroxyacetanilide, N-Hydroxyacetanilide]  Polyporus pinsitus laccase (Trametes villosa, UniProt Q99044)      label 1
3  O=c1[nH]c(=O)[nH]c(=O)[nH]1 [Cyanuric acid]  Polyporus pinsitus laccase (Trametes villosa, UniProt Q99044)      label 1
4  ON=C(c1ccccn1)c1ccccn1 [di-2-pyridylketone oxime]  Polyporus pinsitus laccase (Trametes villosa, UniProt Q99044)      label 1
5  CC[n+]1ccc(-c2ccc(S(=O)(=O)[O-])cc2)o1.O  Polyporus pinsitus laccase (Trametes villosa, UniProt Q99044)      label 0

hey, is Initial changes per minute in A464 nm of methyl orange using rPpL for O=C(c1ccccc1)N(O)c1ccccc1 [N-benzoyl-N-phenylhydroxylamine, N-Benzoyl-N-phenylhydroxylamine] lower than -0.02 per minute or not?
label 1

And what about the molecule On1nnc2ccccc21 [1-hydroxybenzotriazole, 1-Hydroxybenzotriazole] ?
label 1

Same question for O=C1c2ccccc2C(=O)N1O [N-hydroxyphthalimide] please.
label 1

Now consider CCOc1ccc(N=[N+]([O-])c2ccc(OCC)cc2)cc1 [p,p′-azoxydiphenetole, p,p′-Azoxydiphenetole] and answer again.
label 0

Let us now turn to [O-][n+]1cccc2ccccc21 [Quinoline-N-oxide]
label 1

* * *

# Target or test system: Polyporus pinsitus laccase (Trametes villosa, UniProt Q99044)
# Construct: made in house
# Sequence (Q99044 22-520): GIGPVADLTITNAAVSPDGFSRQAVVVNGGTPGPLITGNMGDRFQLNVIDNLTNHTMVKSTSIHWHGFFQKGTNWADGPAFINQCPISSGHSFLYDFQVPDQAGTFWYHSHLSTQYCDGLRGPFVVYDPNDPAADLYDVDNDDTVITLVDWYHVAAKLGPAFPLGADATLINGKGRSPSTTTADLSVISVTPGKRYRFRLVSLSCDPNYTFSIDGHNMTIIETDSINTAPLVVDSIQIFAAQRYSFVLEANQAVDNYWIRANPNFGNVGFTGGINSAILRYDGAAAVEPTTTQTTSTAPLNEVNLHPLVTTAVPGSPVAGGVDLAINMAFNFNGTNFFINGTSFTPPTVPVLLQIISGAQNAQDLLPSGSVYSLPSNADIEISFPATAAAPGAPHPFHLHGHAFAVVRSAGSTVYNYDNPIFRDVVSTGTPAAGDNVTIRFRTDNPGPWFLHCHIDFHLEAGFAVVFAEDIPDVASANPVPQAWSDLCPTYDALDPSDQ
# Method notes: Bleaching of methyl orange using rPpL and NOH-type enhancing agents (initial bleaching rate)
# Assay type: biochemical
# Test conditions: pH 6; rPpL solution diluted 1:200; 0.2 mM mediator; 30° C.; large negative numbers = best performance
Mark each entry Criterion met if its Initial changes per minute in A464 nm of methyl orange using rPpL sits below -0.01 per minute, and Criterion not met for all others.

Example entries begin here.
>>> df
                                   molecule        class_label
0  CC[n+]1ccc(-c2ccc(S(=O)(=O)[O-])cc2)o1.O  Criterion not met
1  O=c1c2ccccc2nnn1O [3-hydroxy-1,2,3-benzotriazin-4(3H)-one, 3-Hydroxy-1,2,3-benzotriazin-4(3H)-one]  Criterion not met
2  O=C(c1ccccc1)N(O)c1ccccc1 [N-benzoyl-N-phenylhydroxylamine, N-Benzoyl-N-phenylhydroxylamine]      Criterion met

Take the molecule CC(=O)N(O)c1ccccc1 [N-hydroxyacetanilide, N-Hydroxyacetanilide] and say whether its Initial changes per minute in A464 nm of methyl orange using rPpL is less than -0.01 per minute.
Criterion met

Taken from patent US6399561B1.
